Where do these numbers come from? They come from PubChem BioAssay AID849.

# IC50 listing for each entry below
# System: Saccharomyces cerevisiae lifespan shortening, growth inhibition
# Assay Protocol: yeast lifespan shortening compounds, dose response (AID 849);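 further: yeast growth read as optical density after two days at 30 degrees C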
Active and inactive are the calls of the source. How the calls were made is not given here.

[
  {
    "Molecule": "Cc1onc(-c2ccccc2)c1C(=O)NC(=S)NNC(=O)c1ccc(O)cc1O",
    "Target Under Test": "Saccharomyces cerevisiae lifespan shortening, growth inhibition",
    "Recorded Value": "> 100 µM (inactive)"
  },
  {
    "Molecule": "CN1CCN(C2=Cc3ccc(Cl)cc3Sc3ccc(F)cc32)CC1",
    "Target Under Test": "Saccharomyces cerevisiae lifespan shortening, growth inhibition",
    "Recorded Value": "30 µM"
  },
  {
    "Molecule": "NC(N)=N/N=C/c1ccc(OCc2ccc(Cl)cc2)cc1",
    "Target Under Test": "Saccharomyces cerevisiae lifespan shortening, growth inhibition",
    "Recorded Value": "48.4 µM"
  },
  {
    "Molecule": "Brc1ccccc1-c1nnc(CSc2nnc3sc4ccccc4n23)o1",
    "Target Under Test": "Saccharomyces cerevisiae lifespan shortening, growth inhibition",
    "Recorded Value": "> 100 µM (inactive)"
  },
  {
    "Molecule": "Cc1cccc(Nc2nc(-c3ccccn3)cs2)n1",
    "Target Under Test": "Saccharomyces cerevisiae lifespan shortening, growth inhibition",
    "Recorded Value": "20.3 µM"
  },
  {
    "Molecule": "O=C(N/N=C1\\CC2CC=CC12)c1ccc(COc2ccccc2)cc1 (stereo unspecified)",
    "Target Under Test": "Saccharomyces cerevisiae lifespan shortening, growth inhibition",
    "Recorded Value": "> 100 µM (inactive)"
  },
  {
    "Molecule": "O=C(c1ccc(C(=O)N2CCCc3ccccc32)s1)N1CCCc2ccccc21",
    "Target Under Test": "Saccharomyces cerevisiae lifespan shortening, growth inhibition",
    "Recorded Value": "35.6 µM"
  },
  {
    "Molecule": "Oc1cc(-c2ccccc2)c2ccccc2c1",
    "Target Under Test": "Saccharomyces cerevisiae lifespan shortening, growth inhibition",
    "Recorded Value": "26 µM"
  }
]

Looking up CCOc1ccc(-c2[nH]ncc2Oc2cccc(OC)c2)c(O)c1 , I found its IC50 recorded as 22.8 µM

Looking up Cc1ccc(-n2c(C)cc(C(=O)COC(=O)c3ccc[nH]c3=O)c2C)cc1C , I found its IC50 recorded as 3.98 µM

Looking up Cc1cc(C(=O)COC(=O)c2ccc[nH]c2=O)c(C)n1-c1ccccc1 , I found its IC50 recorded as 21.3 µM
